assay: Urinary excretion after i.p. injection (metabolic assay); type: in vivo, mice; conditions: urine, ip, 300 mg/kg; 3 h after i.p. injection, 5.2 mg/mouse; read-out: Urinary excretion of unchanged compound, % of dose
measureName: dose excreted at 3 h (%)
One number for each entry, in %.

NCCSc1ccc(O)cc1 [4-S-CAP, 4-S-cysteaminylphenol, reference compound] :: 7.7

So what's the measured dose excreted at 3 h for this one? CC(=O)NCCSc1ccc(O)cc1 [N-Ac-4-S-CAP, N-ACETYL-4-S-CYSTEAMINYLPHENOL]
13.9

* * *

experiment: in vivo; conditions: mouse, ip
measureName: LD50

# get_value(readout='LD50', item= `CC(=O)NCCSc1ccc(O)cc1` )
≤ 1400 mg/kg

The measurements presented in this section are drawn from patent US5395611A.
